tested on: Saccharomyces cerevisiae BY4741 SeMeCo community; assay: z-score of subpopulation abundance vs DMSO median, subpopulation auxotrophic for LU; higher = larger share of this subpopulation than in DMSO controls; conditions: 10 µM; 24 h; SM minimal medium; subpopulation (auxotrophy): LU
Structures can show the parent of a compound that is named as a salt.
# reported z-score of subpopulation abundance; entries follow
The reply should be a number, written without any unit.

compound	z-score of subpopulation abundance
CC(NC(C)(C)C)C(=O)c1cccc(Cl)c1 (configuration not stated) [Amfebutamone (Bupropion) HCl]	0.12
CCN(CC)CCOC(=O)C(O)(c1ccccc1)c1ccccc1 [Benactyzine hydrochloride]	1.57
CN1[C@@H]2CC[C@H]1C[C@@H](OC(=O)[C@H](CO)c1ccccc1)C2	0.31
CCN1CC2(OC(=O)c3ccccc3NC(C)=O)CCC(OC)C34C1C(CC23)C1(O)CC(OC)C2CC4C1(O)C2OC (configuration not stated)	0.55
COc1ccc(C=O)cc1	-0.64
CC[C@@H](C(N)=O)N1CCCC1=O	-0.25
CN1[C@@H]2C[C@@H](OC(=O)[C@H](CO)c3ccccc3)C[C@H]1[C@@H]1O[C@@H]12 [Scopolamine HBr trihydrate]	-0.6
CC(C)N(CCC(C(N)=O)(c1ccccc1)c1ccccn1)C(C)C (configuration not stated) [Disopyramide]	-0.22

Any idea what z-score of subpopulation abundance was measured for C[CH2][Hg][S]c1ccccc1C(=O)[O-].[Na+] ?
11.1

Again, but for Cc1cc(C(C#N)c2ccc(Cl)cc2)c(Cl)cc1NC(=O)c1cc(I)cc(I)c1O (configuration not stated)
0.89

Again, but for CCOC(=O)Nc1ccc(NCc2ccc(F)cc2)cc1N
-1.25

Again, but for C[C@H]1O[C@H](O[C@H]2[C@H](O)[C@@H](O)[C@@H](O)[C@H](O)[C@@H]2O)[C@@H](N)C[C@@H]1NC(=N)C(=O)O [Kasugamycin hydrochloride]
0.49

Again, but for CN1[C@@H]2CC[C@H]1C[C@@H](OC(=O)C(CO)c1ccccc1)C2 (some centres not stated) [Atropine sulfate monohydrate]
-0.08

Again, but for CC[C@@]1(O)C(=O)OCc2c1cc1n(c2=O)Cc2cc3ccccc3nc2-1
-0.54

* * *

tested on: Saccharomyces cerevisiae BY4741 SeMeCo community; assay: z-score of subpopulation abundance vs DMSO median, subpopulation auxotrophic for HLU; higher = larger share of this subpopulation than in DMSO controls; details: 10 µM; 24 h; SM minimal medium; subpopulation (auxotrophy): HLU
Where a name gives a salt, the structure may show the parent alone.
measured quantity: z-score of subpopulation abundance
The reply should be a number, written without any unit.

molecule	measured quantity	value measured
CN(C)[C@@H]1C(=O)C(C(N)=O)=C(O)[C@@]2(O)C(=O)C3=C(O)c4c(O)cccc4[C@@](C)(O)[C@H]3C[C@@H]12 [Tetracycline HCl]	z-score of subpopulation abundance	0.02
CN1[C@@H]2C[C@@H](OC(=O)[C@H](CO)c3ccccc3)C[C@H]1[C@@H]1O[C@@H]12	z-score of subpopulation abundance	-1.08

The record that follows has no z-score of subpopulation abundance shown yet.
Any idea what z-score of subpopulation abundance was measured for CN[C@@H]1[C@@H](O)[C@@H](O[C@@H]2[C@@H](O)[C@H](O[C@H]3O[C@H]([C@@H](C)O)[C@@H](O)[C@H](O)[C@H]3N)[C@@H](N)C[C@H]2N)OC[C@]1(C)O [Geneticin (G418 Sulfate)] ?
0.77

* * *

tested on: Saccharomyces cerevisiae BY4741 SeMeCo community; assay: z-score of subpopulation abundance vs DMSO median, subpopulation auxotrophic for UM; higher = larger share of this subpopulation than in DMSO controls; conditions: 10 µM; 24 h; SM minimal medium; subpopulation (auxotrophy): UM
Where a name gives a salt, the structure may show the parent alone.
measured quantity: z-score of subpopulation abundance
The reply should be a number, written without any unit.

compound	z-score of subpopulation abundance
CN(C)[C@@H]1C(=O)C(C(N)=O)=C(O)[C@@]2(O)C(=O)C3=C(O)c4c(O)ccc(Cl)c4[C@@](C)(O)[C@H]3C[C@@H]12 [Chlortetracycline HCl]	-0.66
CN(C)[C@@H]1C(=O)C(C(N)=O)=C(O)[C@@]2(O)C(=O)C3=C(O)c4c(O)cccc4[C@@](C)(O)[C@H]3[C@H](O)[C@@H]12 [Oxytetracycline (Terramycin)]	-0.17
C[C@@H]1O[C@@H](O[C@H]2C[C@@H](O)[C@]3(CO)[C@H]4[C@H](O)C[C@]5(C)[C@@H](C6=CC(=O)OC6)CC[C@]5(O)[C@@H]4CC[C@]3(O)C2)[C@H](O)[C@H](O)[C@H]1O	0.06
CC1(C)SC2C(N)C(=O)N2C1C(=O)O (stereo not given)	0.97
C[C@@H]1CC[C@H]2[C@@H](C)C(=O)O[C@@H]3O[C@@]4(C)CC[C@@H]1[C@]32OO4	-0.66
CC(C)=CCOc1c2occc2cc2ccc(=O)oc12	0.52
C[CH2][Hg][S]c1ccccc1C(=O)[O-].[Na+]	6.06
COc1ccc(C(CN(C)C)C2(O)CCCCC2)cc1 (stereo not given)	0.35
CC(NC(C)(C)C)C(=O)c1cccc(Cl)c1 (stereo not given) [Amfebutamone (Bupropion) HCl]	-0.25
COc1ccc2c(c1)[C@]13CCCC[C@@H]1[C@H](C2)N(C)CC3 [Dextromethorphan hydrobromide hydrate]	-0.52

Query the reported z-score of subpopulation abundance for Saccharomyces cerevisiae BY4741 SeMeCo community; item: O=c1cccc2n1C[C@@H]1CNC[C@H]2C1
-0.6

Again, but for N[C@@H]1C[C@H]1c1ccccc1 [Tranylcypromine (2-PCPA) HCl]
-0.34

Again, but for O=c1[nH]c2ccccc2n1CCCN1CCC(n2c(=O)[nH]c3cc(Cl)ccc32)CC1
0.56

Again, but for NCCc1c[nH]c2ccc(O)cc12 [Serotonin HCl]
-0.02

Again, but for CN(C)[C@@H]1C(=O)C(C(N)=O)=C(O)[C@@]2(O)C(=O)C3=C(O)c4c(O)cccc4[C@@](C)(O)[C@H]3[C@H](O)[C@@H]12 [Oxytetracycline Dihydrate]
-0.39

* * *

# reported z-score of subpopulation abundance; entries follow
test system: Saccharomyces cerevisiae BY4741 SeMeCo community; experiment: z-score of subpopulation abundance vs DMSO median, subpopulation auxotrophic for HU; higher = larger share of this subpopulation than in DMSO controls; settings: 10 µM; 24 h; SM minimal medium; subpopulation (auxotrophy): HU
Counter-ions that a name gives are not always drawn.

Solved entries (count: 3):
compound	measured target	z-score of subpopulation abundance
CCN(CC)CCOC(=O)C(O)(c1ccccc1)c1ccccc1 [Benactyzine hydrochloride]	Saccharomyces cerevisiae BY4741 SeMeCo community	1.62
CC[N+](C)(CC)CCOC(=O)C(O)(c1ccccc1)c1ccccc1 [Methylbenactyzine Bromide]	Saccharomyces cerevisiae BY4741 SeMeCo community	-0.63
CN(C)C(=O)Oc1cccc([N+](C)(C)C)c1 [Neostigmine Bromide]	Saccharomyces cerevisiae BY4741 SeMeCo community	-0.26

Any idea what z-score of subpopulation abundance was measured for CCN(C)C(=O)Oc1cccc([C@H](C)N(C)C)c1 [Rivastigmine Tartrate] ?
-0.86

Again, but for COc1ccc(C=O)cc1
-0.72

Again, but for CC[C@H]1[C@@H]2C[C@H]3[C@@H]4N(C)c5ccccc5[C@]45C[C@@H]([C@@H]2[C@H]5O)N3[C@@H]1O
-0.28

Again, but for Cc1cc(O)ccc1Cl
-1.07

Again, but for CC(C)N(CCC(C(N)=O)(c1ccccc1)c1ccccn1)C(C)C (stereo not drawn) [Disopyramide]
-0.45

Again, but for CCCCCCCCCCCCCCCC[n+]1ccccc1 [Cetylpyridinium Chloride]
16.1

Again, but for Nc1nc(N)nc(NC2CC2)n1
0.05

Again, but for CC(NC(C)(C)C)C(=O)c1cccc(Cl)c1 (stereo not drawn) [Amfebutamone (Bupropion) HCl]
-0.9

Again, but for C[C@H]1O[C@H](O[C@H]2[C@H](O)[C@@H](O)[C@@H](O)[C@H](O)[C@@H]2O)[C@@H](N)C[C@@H]1NC(=N)C(=O)O [Kasugamycin hydrochloride]
-0.33

Again, but for COc1ccc(C(CN(C)C)C2(O)CCCCC2)cc1 (stereo not drawn)
0.4

Again, but for O=C(O[C@H]1C[C@H]2CC[C@@H](C1)[N+]21CCCC1)C(O)(c1ccccc1)c1ccccc1 [Trospium chloride]
0.09

Again, but for NC(=O)CN1CCCC1=O
0.46

Again, but for CCCN1C[C@H](CSC)C[C@@H]2c3cccc4[nH]cc(c34)C[C@H]21 [Pergolide Mesylate]
-0.93

Again, but for CC[C@@]1(O)C(=O)OCc2c1cc1n(c2=O)Cc2cc3ccccc3nc2-1
-0.74

Again, but for CCOC(=O)Nc1ccc(NCc2ccc(F)cc2)cc1N
-0.59

Again, but for O=c1cccc2n1C[C@@H]1CNC[C@H]2C1
-0.56

Again, but for CC(C)=CCOc1c2occc2cc2ccc(=O)oc12
0.85

Again, but for C[C@@H]1O[C@@H](O[C@H]2C[C@@H](O)[C@]3(CO)[C@H]4[C@H](O)C[C@]5(C)[C@@H](C6=CC(=O)OC6)CC[C@]5(O)[C@@H]4CC[C@]3(O)C2)[C@H](O)[C@H](O)[C@H]1O
-0.71

Again, but for O=C(O[C@H]1C[N+]2(CCCOc3ccccc3)CCC1CC2)C(O)(c1cccs1)c1cccs1 [Aclidinium Bromide]
0.63
